target-desc: GTPase KRas [G13C] (Homo sapiens, UniProt P01116, G13C)
Sequence (P01116 whole entry G13C): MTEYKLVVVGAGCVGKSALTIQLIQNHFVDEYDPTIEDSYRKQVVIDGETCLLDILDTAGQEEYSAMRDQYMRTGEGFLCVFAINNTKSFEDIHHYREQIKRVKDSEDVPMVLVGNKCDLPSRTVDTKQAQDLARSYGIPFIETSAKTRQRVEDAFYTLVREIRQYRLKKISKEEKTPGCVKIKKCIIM
test-details: Biochemical Assay
measured-attribute: IC50

Find the measured IC50 of CCn1c(-c2cccnc2COC)c2c3cc(ccc31)-c1cc(O)cc(c1)C[C@H](NC(=O)[C@H](C(C)C)N(C)C(=O)[C@H]1CCN(C(=O)C#CCN(C)C)C1)C(=O)N1CCC[C@H](N1)C(=O)OCC(C)(C)C2 [US11566007, Example A96] and report it.
< 0.01 µM

Find the measured IC50 of CCn1c(-c2cccnc2COC)c2c3cc(ccc31)-c1cc(O)cc(c1)C[C@H](NC(=O)[C@H](C(C)C)N(C)C(=O)C1CN(C(=O)C#CCN(C)C)C1)C(=O)N1CCC[C@H](N1)C(=O)OCC(C)(C)C2 [US11566007, Example A97] and report it.
< 0.01 µM
